// values below are IC50; system is human MER (Homo sapiens, UniProt Q12866)
Sequence (Q12866 21-999): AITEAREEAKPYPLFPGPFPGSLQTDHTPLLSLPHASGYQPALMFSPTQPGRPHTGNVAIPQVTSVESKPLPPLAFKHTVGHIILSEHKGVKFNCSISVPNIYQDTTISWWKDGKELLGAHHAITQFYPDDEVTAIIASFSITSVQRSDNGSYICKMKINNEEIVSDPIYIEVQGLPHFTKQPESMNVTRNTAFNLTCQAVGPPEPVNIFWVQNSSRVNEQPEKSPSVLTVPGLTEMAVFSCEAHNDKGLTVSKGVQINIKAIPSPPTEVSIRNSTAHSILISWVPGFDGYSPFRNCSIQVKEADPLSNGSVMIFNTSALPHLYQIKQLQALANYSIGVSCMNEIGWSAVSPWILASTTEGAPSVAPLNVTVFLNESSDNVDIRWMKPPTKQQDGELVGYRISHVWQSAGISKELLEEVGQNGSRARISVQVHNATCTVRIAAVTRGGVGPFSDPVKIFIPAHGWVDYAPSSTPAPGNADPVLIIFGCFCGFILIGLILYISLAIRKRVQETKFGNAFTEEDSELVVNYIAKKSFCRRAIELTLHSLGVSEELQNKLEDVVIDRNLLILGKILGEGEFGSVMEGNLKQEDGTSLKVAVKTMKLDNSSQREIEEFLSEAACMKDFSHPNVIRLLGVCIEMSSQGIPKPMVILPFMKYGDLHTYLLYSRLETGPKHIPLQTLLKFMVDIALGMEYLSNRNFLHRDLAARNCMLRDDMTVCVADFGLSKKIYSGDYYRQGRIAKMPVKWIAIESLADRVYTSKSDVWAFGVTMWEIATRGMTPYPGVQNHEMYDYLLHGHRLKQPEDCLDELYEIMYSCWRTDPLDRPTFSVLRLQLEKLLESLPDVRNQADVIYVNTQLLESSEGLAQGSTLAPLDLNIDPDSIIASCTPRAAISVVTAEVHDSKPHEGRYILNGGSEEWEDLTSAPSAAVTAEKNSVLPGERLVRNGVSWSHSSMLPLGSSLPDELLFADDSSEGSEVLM

# count of solved cases: 5
INSERT INTO measurements (compound, data_value) VALUES
  ('COCCN1CCc2ccc(-c3cnc4[nH]nc(-c5ccc(C(C)(C)O)c(Cl)c5)c4c3)cc2CC1', '> 1000 nM'),
  ('Cc1cc(-c2n[nH]c3ncc(-c4ccc5c(c4)CC[C@@H](N4CCCC4)CC5)cc23)cc(Cl)c1C(N)=O', '< 100 nM'),
  ('C[C@H]1CCCN1C1CCc2ccc(-c3cnc4[nH]nc(-c5ccc(S(=O)(=O)C6CC6)cc5)c4c3)cc2CC1 (stereo partly shown)', '100 to 1000 nM'),
  ('C[C@@H]1CCCN1C1(C)CCc2ccc(-c3cnc4[nH]nc(-c5ccc(C(=O)N[C@H]6CCOC6)cc5)c4c3)cc2CC1 (stereo partly shown)', '> 1000 nM'),
  ('Cc1cc2c(cc1-c1cnc3[nH]nc(-c4ccc(C(C)(C)O)c(Cl)c4)c3c1)CCC(N1CCC[C@H]1C)CC2 (stereo partly shown)', '> 1000 nM');

query: What reported IC50 corresponds to CS(=O)(=O)c1ccc(-c2n[nH]c3ncc(-c4ccc5c(c4)CCN(C4CCCC4)CC5)cc23)cc1Cl on human MER (Homo sapiens, UniProt Q12866)?
result: 100 to 1000 nM

query: What reported IC50 corresponds to O=C(c1ccc(-c2n[nH]c3ncc(-c4ccc5c(c4)CC[C@@H](N4CCCC4)CC5)cc23)cc1Cl)N1CCC(O)CC1 on human MER (Homo sapiens, UniProt Q12866)?
result: 100 to 1000 nM

---

# System: UniProtKB P30530
# Sequence (P30530 26-894): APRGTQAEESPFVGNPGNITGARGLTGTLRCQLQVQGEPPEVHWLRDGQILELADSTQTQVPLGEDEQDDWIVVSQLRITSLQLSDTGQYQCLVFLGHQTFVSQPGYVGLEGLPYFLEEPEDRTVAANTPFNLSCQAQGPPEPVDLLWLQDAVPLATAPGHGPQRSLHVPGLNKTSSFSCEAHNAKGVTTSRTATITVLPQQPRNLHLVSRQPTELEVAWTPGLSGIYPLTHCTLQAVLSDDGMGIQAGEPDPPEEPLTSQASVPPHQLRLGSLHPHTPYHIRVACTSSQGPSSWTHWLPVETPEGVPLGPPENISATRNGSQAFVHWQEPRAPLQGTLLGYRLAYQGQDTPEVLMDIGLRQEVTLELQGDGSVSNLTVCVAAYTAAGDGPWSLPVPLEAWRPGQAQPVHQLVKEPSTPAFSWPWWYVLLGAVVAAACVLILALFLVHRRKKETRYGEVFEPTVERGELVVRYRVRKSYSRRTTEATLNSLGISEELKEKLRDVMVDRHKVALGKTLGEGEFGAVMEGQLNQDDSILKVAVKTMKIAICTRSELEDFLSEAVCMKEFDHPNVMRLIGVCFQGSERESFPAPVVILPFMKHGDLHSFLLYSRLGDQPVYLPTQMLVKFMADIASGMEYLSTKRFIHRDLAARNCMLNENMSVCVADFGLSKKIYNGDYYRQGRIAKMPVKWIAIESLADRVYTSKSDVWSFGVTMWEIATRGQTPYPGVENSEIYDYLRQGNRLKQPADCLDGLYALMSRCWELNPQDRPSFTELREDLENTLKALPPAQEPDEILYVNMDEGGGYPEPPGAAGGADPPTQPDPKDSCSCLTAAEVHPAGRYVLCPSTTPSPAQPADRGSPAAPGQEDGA
# Experiment summary: Axl NanoBRET intracellular kinase assay (intracellular binding, Cell Binding)
# Design: host or cells: HEK-293
# Experimental setup: HEK-293 cells transfected with Axl-NanoLuc fusion vector; 0.35 μM K-5 NanoBRET tracer
pIC50: −log10 of the molar value.
We begin with a simple list: items and their reported pIC50.

INSERT INTO results (compound, data_value) VALUES
  ('C[C@H]1CCCN1C1(C)CCc2ccc(-c3cnc4[nH]nc(-c5ccc(S(=O)(=O)C6CC6)cc5)c4c3)cc2CC1 (stereo partly shown)', '> 7.00'),
  ('CCS(=O)(=O)c1ccc(-c2n[nH]c3ncc(-c4ccc5c(c4)CC[C@@H](N4CCCC4)CC5)cc23)cc1', '> 7.00'),
  ('CS(=O)(=O)c1ccc(-c2n[nH]c3ncc(-c4ccc5c(c4)CCN(C4CCCC4)CC5)cc23)cc1F', '6.00 to 7.00'),
  ('C[C@@H]1CCCN1C1CCc2ccc(-c3cnc4[nH]nc(-c5ccc(S(=O)(=O)C6CC6)cc5)c4c3)cc2CC1 (stereo partly shown)', '> 7.00');

query: Could you tell me which pIC50 is on file for CS(=O)(=O)c1ccc(-c2n[nH]c3nc(N)c(-c4ccc5c(c4)CCN(C4CCCC4)CC5)cc23)cc1 ?
result: < 6.00

query: Could you tell me which pIC50 is on file for CCC1(N2CCC[C@@H]2CO)CCc2ccc(-c3cnc4[nH]nc(-c5ccc(C(N)=O)c(Cl)c5)c4c3)cc2CC1 (stereo partly shown) ?
result: > 7.00

query: Could you tell me which pIC50 is on file for CS(=O)(=O)c1ccc(-c2n[nH]c3ncc(-c4ccc5c(c4)CCN(C4CCCC4)CC5)cc23)cc1 ?
result: 6.00 to 7.00
